- Target system: hGPR119 (Homo sapiens)
- Construct: expressed in transfected cells; host or cells: CHO cells (CHO-hGPR119)
- Sequence (Q8TDV5 whole entry): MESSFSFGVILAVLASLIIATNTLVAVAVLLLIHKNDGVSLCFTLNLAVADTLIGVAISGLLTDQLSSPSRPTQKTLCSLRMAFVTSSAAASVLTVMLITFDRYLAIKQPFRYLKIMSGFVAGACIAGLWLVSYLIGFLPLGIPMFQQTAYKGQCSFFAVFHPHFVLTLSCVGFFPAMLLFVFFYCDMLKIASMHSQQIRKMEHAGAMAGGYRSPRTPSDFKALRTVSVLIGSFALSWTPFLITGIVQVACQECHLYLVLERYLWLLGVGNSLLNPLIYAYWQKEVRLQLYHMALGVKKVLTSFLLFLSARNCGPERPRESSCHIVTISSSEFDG
- Test method notes: In vitro cyclic AMP assay (Cisbio HTRF) in CHO-hGPR119 cells
- Format: cell-based
- Condition set: 1 h, cAMP, 1 μM, 60 min, read-out: Induction (% induction at 1 μM)
Quantity: activation at 1 µM (%)

Take a look at these entries with their results.
{"Molecule": "CC(C)c1noc(N2CCC(C(C)Oc3nn4cc(-c5ccncc5F)nc4s3)CC2)n1 (stereo in doubt) [Compound 1064]", "Target system": "hGPR119 (Homo sapiens)", "Unit text": "%", "activation at 1 µM": 75}
{"Molecule": "CC(C)c1noc(N2CCC(C(C)Oc3nn4cc(-c5ccc(Cl)nc5)nc4s3)CC2)n1 (stereo not drawn) [Compound 1075]", "Target system": "hGPR119 (Homo sapiens)", "Unit text": "%", "activation at 1 µM": 64}
{"Molecule": "CCc1cnc(N2CCC([C@@H](C)Oc3nn4cc(-c5ccc(S(C)(=O)=O)cc5)nc4s3)CC2)nc1 [Compound 1062]", "Target system": "hGPR119 (Homo sapiens)", "Unit text": "%", "activation at 1 µM": 78}
{"Molecule": "CC(C)c1noc(N2CCC([C@@H](C)Oc3nn4cc(-c5ccc(S(C)(=O)=O)cc5F)nc4s3)CC2)n1 [Compound 1088]", "Target system": "hGPR119 (Homo sapiens)", "Unit text": "%", "activation at 1 µM": 73}
{"Molecule": "CN(c1nn2cc(-c3ccc(S(C)(=O)=O)cc3)nc2s1)C1CCN(C(N)=O)CC1 [Compound 1025]", "Target system": "hGPR119 (Homo sapiens)", "Unit text": "%", "activation at 1 µM": 11}

1 = COc1cnccc1-c1cn2nc(OC(C)C3CCN(c4nc(C(C)C)no4)CC3)sc2n1 (stereo not drawn) [Compound 1095]
2 = CC(C)c1noc(C2CCN(c3nn4cc(-c5ccc(C(=O)N(C)C)cc5)nc4s3)CC2)n1 [Compound 1036]
1 or 2 : whose activation at 1 µM is greater? State your choice using its label.
2

A = CC(C)c1noc(C2CCN(c3nsnc3COc3ccc(S(C)(=O)=O)cc3F)CC2)n1 [Compound 1006]
B = Cc1cc(S(C)(=O)=O)ccc1-c1cn2nc(O[C@@H](C)C3CCN(c4nc(C(C)C)no4)CC3)sc2n1 [Compound 1112]
C = CS(=O)(=O)c1ccc(-c2cn3nc(C4CCN(S(C)(=O)=O)CC4)sc3n2)cc1 [Compound 1031]
D = CC(C)c1noc(N2CCC(N(C)c3nc(-c4ccc(S(C)(=O)=O)nc4)ns3)CC2)n1 [Compound 1127]
Falling order of activation at 1 µM, please. Field: ranking. Enter the labels in the order requested.
B, A, D, C

a = CC(C)c1cnc(N2CCC(C(C)Oc3nn4cc(-c5ccc(S(C)(=O)=O)cc5)nc4s3)CC2)nc1 (stereo not drawn) [Compound 1070]
b = CCc1cnc(N2CCC([C@H](C)Oc3nn4cc(-c5ccc(S(C)(=O)=O)cc5F)nc4s3)CC2)nc1 [Compound 1086]
c = COCCNC(=O)c1ccc(-c2nn3cc(C4CCN(C(=O)OC(C)C)CC4)nc3s2)cc1 [Compound 1035]
d = CC(C)c1noc(C2CCN(c3nc(-c4ccc(S(C)(=O)=O)cc4)ns3)CC2)n1 [Compound 1114]
Falling order of activation at 1 µM, please. Field: ranking. Enter the labels in the order requested.
b, a, c, d
